- ASSAY TEXT: Cmax in C57BL6/J mouse at 5 mg/kg, ip measured upto 24 hrs by LC-MS/MS analysis
- Format: ADME, organism-based
- Set-up: time < 24 hrs, dose 5 mg/kg, route ip
- RUN PARAMETERS: in vivo
METRIC: Cmax (ng/mL)
// note: answer is a bare numeric in ng/mL

Task item: What value of measured Cmax is listed for `Cc1ccc(S(=O)(=O)n2cc(Cc3cc(C)c(O)c(C)c3)c3ccccc32)cc1` ?
Reply: 118

----------
- ASSAY TEXT: AUC (0 to 8hrs) in C57BL6/J mouse at 5 mg/kg, iv measured upto 24 hrs by LC-MS/MS analysis
- Assay type: ADME, organism-based
- Set-up: dose 5 mg/kg, time < 24 hrs, route iv
- RUN PARAMETERS: in vivo
METRIC: AUC(0-t) at 24 h (ng·h/mL)
Please state the figure in ng·h/mL; there is no need to write the unit.

Task item: I have this compound here, `Cc1ccc(S(=O)(=O)n2cc(Cc3cc(C)c(O)c(C)c3)c3ccccc32)cc1` , and I need its recorded AUC(0-t) at 24 h.
Reply: 885

----------
- ASSAY TEXT: Half life in C57BL6/J mouse at 5 mg/kg, iv measured upto 24 hrs by LC-MS/MS analysis
- Assay type: ADME, organism-based
- RUN PARAMETERS: in vivo
METRIC: half-life (h)
Kindly answer with a numeric value in h, unit omitted.

Task item: Which half-life is listed for `Cc1ccc(S(=O)(=O)n2cc(Cc3cc(C)c(O)c(C)c3)c3ccccc32)cc1` ?
Reply: 1.13

----------
- ASSAY TEXT: Apparent volume of distribution in C57BL6/J mouse at 5 mg/kg, iv measured upto 24 hrs by LC-MS/MS analysis
- Type: ADME, organism-based
- RUN PARAMETERS: in vivo, read-out: Vz
METRIC: Vd (L/kg)
# value in L/kg; strip the unit string

Task item: Need Vd, item `Cc1ccc(S(=O)(=O)n2cc(Cc3cc(C)c(O)c(C)c3)c3ccccc32)cc1`
Reply: 8.89

----------
- ASSAY TEXT: AUC (0 to infinity) in C57BL6/J mouse at 5 mg/kg, iv measured upto 24 hrs by LC-MS/MS analysis
- Format: ADME, organism-based
- Design: dose 5 mg/kg, time < 24 hrs, route iv
- RUN PARAMETERS: in vivo
METRIC: AUC(0-inf) (ng·h/mL)
Respond with the bare value in ng·h/mL.

Task item: Look up AUC(0-inf): `Cc1ccc(S(=O)(=O)n2cc(Cc3cc(C)c(O)c(C)c3)c3ccccc32)cc1`
Reply: 925

----------
- ASSAY TEXT: AUC (0 to infinity) in C57BL6/J mouse at 5 mg/kg, ip measured upto 24 hrs by LC-MS/MS analysis
- Format: ADME, organism-based
- Set-up: time < 24 hrs, dose 5 mg/kg, route ip
- RUN PARAMETERS: in vivo
METRIC: AUC(0-inf) (ng·h/mL)
Provide the reading as a plain figure in ng·h/mL.

Task item: Given `Cc1ccc(S(=O)(=O)n2cc(Cc3cc(C)c(O)c(C)c3)c3ccccc32)cc1` , state its recorded AUC(0-inf).
Reply: 420

----------
- Test system: GL261
- ASSAY TEXT: Anti-proliferative activity against mouse GL261 cells assessed as cell viability incubated for 2 hrs by CCK8 assay
- Assay type: functional, cell-based
- RUN PARAMETERS: GL261, 2 h
METRIC: IC50 (µM)
Write the value in µM as a bare number.

Task item: Consider the molecule `Cc1ccc(S(=O)(=O)n2cc(Cc3cc(C)c(O)c(C)c3)c3ccccc32)cc1` and give its measured IC50.
Reply: 1.35

Task item: Requested field: IC50. Item: `Cc1cc(Cc2cn(C(=O)c3ccncn3)c3ccccc23)cc(C)c1O`
Reply: 13.3

Task item: Can you look up the measured IC50 of `OCc1c[nH]c2ccccc12` for me?
Reply: 100

Task item: Any idea what IC50 was measured for `Cc1cc(Cc2cn(C(=O)c3ccc(N4CCOCC4)cc3)c3ccccc23)cc(C)c1O` ?
Reply: 12.7

Task item: Quick one: IC50 for `Cc1ccc(S(=O)(=O)n2cc(Cc3cc(C)c(O)c(C)c3)c3cc(C)ccc32)cc1` ?
Reply: 12.3

Task item: May I ask what IC50 has been recorded for `Cc1cc(Cc2cn(S(=O)(=O)c3ccc([N+](=O)[O-])c(Cl)c3)c3ccccc23)cc(C)c1O` ?
Reply: 15.7

Task item: Consider the molecule shown here: `COc1c(C)cc(Cc2cn(S(=O)(=O)c3ccc(C)cc3)c3ccccc23)cc1C` What is its recorded IC50?
Reply: 100

Task item: Requested read-out: IC50. Entry: `CCC(=O)n1cc(Cc2cc(C)c(O)c(C)c2)c2ccccc21`
Reply: 2850

Task item: Can you look up the measured IC50 of `Cc1cc(Cc2cn(S(C)(=O)=O)c3ccccc23)cc(C)c1O` for me?
Reply: 100

Task item: Which IC50 value belongs to `Cc1cc(Cc2c[nH]c3ccc([N+](=O)[O-])cc23)cc(C)c1O` ?
Reply: 43.8
